These data points were gathered from patent US12157736B2.

- measured.target: NMDAR2A (Homo sapiens, UniProt Q12879)
- Construct: expressed in transfected cells; host or cells: HEK cells (membrane extract)
- Sequence (Q12879 23-1464, species assumed, other chains not shown): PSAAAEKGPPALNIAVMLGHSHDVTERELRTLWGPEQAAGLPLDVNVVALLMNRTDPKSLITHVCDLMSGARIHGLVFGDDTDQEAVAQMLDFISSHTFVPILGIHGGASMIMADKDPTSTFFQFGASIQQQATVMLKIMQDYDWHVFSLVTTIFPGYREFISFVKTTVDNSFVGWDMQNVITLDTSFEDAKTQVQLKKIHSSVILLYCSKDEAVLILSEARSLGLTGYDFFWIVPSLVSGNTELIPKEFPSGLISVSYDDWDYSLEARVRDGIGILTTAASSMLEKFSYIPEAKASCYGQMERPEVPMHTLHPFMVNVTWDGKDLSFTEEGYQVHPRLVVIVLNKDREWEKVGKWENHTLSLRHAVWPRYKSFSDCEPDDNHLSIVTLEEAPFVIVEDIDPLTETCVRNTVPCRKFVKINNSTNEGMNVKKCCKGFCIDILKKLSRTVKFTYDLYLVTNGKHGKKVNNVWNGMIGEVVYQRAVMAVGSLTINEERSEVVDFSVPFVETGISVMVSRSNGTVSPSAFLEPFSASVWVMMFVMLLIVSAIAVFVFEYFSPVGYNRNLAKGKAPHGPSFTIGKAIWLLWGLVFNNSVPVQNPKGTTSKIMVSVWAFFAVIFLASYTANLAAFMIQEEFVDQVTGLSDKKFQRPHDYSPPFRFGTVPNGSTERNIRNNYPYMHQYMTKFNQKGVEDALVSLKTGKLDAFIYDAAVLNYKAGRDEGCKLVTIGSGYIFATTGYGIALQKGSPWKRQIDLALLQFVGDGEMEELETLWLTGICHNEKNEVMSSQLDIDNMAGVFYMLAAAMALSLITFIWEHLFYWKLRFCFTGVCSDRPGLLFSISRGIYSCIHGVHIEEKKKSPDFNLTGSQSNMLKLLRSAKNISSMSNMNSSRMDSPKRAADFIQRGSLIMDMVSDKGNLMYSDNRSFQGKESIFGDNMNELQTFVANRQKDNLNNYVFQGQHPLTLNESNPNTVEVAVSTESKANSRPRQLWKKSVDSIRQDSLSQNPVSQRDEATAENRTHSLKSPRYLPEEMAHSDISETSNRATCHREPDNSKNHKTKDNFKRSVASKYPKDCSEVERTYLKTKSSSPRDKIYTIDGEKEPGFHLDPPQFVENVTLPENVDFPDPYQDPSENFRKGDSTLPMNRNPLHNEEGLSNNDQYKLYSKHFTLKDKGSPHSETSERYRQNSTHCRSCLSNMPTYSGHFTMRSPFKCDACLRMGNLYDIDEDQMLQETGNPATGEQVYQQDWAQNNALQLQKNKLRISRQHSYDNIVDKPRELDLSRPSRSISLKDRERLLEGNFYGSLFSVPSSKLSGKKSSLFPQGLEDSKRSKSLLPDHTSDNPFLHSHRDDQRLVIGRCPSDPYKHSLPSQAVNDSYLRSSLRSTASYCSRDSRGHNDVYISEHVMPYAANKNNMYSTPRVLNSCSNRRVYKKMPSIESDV
- assay.name: NMDAR agonist assay, [3H]MK-801 binding, NMDAR2A expressing HEK cell membranes
- Format: biochemical
- test.settings: 50 μM glutamate, read-out: NMDAR2A: % maximal [3H]MK-801 binding relative to 1 mM glycine
For each entry below, report its Emax value.

Reported Emax, compound CC1CC(=O)N(C)C12CN(CC(N)=O)C2=O (single isomer, unassigned) [DI] : ____ < 100%

Please report the recorded Emax for CC1CC(=O)N(C)C12CN(CC(N)=O)C2=O (single isomer, unassigned) [DJ] . 0%

Please look up its Emax: C[C@@H](O)[C@@H](C(=O)N(C)C)N1CC2(CCNC(=O)C2)C1=O (single isomer, unassigned) [CD] < 100%

Recorded Emax of NC(=O)CN1CC2(CCNC(=O)C2)C1=O (single isomer, unassigned) [DD] , please. 0%

Which Emax value belongs to NC(=O)CN1CC2(CCNC(=O)C2)C1=O (single isomer, unassigned) [DC] ? < 100%

I have this compound here, C[C@@H](O)[C@@H](C(=O)N(C)C)N1CC2(CCNC(=O)C2)C1=O (single isomer, unassigned) [CC] , and I need its recorded Emax. 0%

# get_value(readout='Emax', item= O=C1CC2(CCN1)CN(Cc1ccccc1)C2=O (single isomer, unassigned) [CV] ) < 100%

Consider the compound shown here: O=C1CC2(CCN1)CN(Cc1ccccc1)C2=O (single isomer, unassigned) [CU] What is its recorded Emax? 0%
